# Tested on: SF-539 CNS
# Assay: NCI tumour cell line growth inhibition, 48 h
TGI values for the compounds below.

Known TGI results, listed for orientation:
{"Compound": "COc1ccc(C2=NN(C=O)C(c3cccc(Nc4ccnc5cc(Cl)ccc45)c3)C2)cc1 (configuration not stated)", "TGI": "7.41 µM"}
{"Compound": "COc1ccc(Nc2nc(N)c(C(=O)c3c[nH]c4ccccc34)s2)cc1", "TGI": "> 36.9 µM"}
{"Compound": "Cc1[nH]nc(C(=O)n2nc(N)c3ccccc32)c1[N+](=O)[O-]", "TGI": "> 100 µM"}
{"Compound": "CSc1cc(=O)n2c3ccccc3c3ccnc1c32", "TGI": "> 71.4 µM"}
{"Compound": "O=C1N=C2SC(=S)NC(=S)N2NC12c1ccccc1-c1ccccc12", "TGI": "> 10 µM"}
{"Compound": "Cc1cc(C)c2c(=O)cc(-c3cccc(F)c3)[nH]c2n1", "TGI": "4.54 µM"}
{"Compound": "COc1cc(/C=C2\\C(=O)Nc3ccc(N(C)C)cc32)cc(OC)c1OC", "TGI": "7.88 µM"}
{"Compound": "CCCCN(CCCC)c1c([N+](=O)[O-])c(=O)nc2ccccn12", "TGI": "> 100 µM"}

Looking for the measured TGI of `CCN(CC)C(=S)SC` , can you help?
> 100 µM

---

TGI values for the compounds below.
# Tested on: HOP-92 NSCLC
# Assay: NCI tumour cell line growth inhibition, 48 h

{"Structure Notation": "CCN(CC)C(=S)SC", "Test System": "HOP-92 NSCLC", "TGI": "> 100 µM"}
{"Structure Notation": "COc1cc(-c2n/c(=C\\c3c(O)[nH]c4ccc(Cl)cc34)cc3c2=Nc2ccccc2-3)ccc1F", "Test System": "HOP-92 NSCLC", "TGI": "3.82 µM"}
{"Structure Notation": "O=C(c1ccncc1)n1nc(-c2ccccc2)c(N=Nc2ccccc2[N+](=O)[O-])c1-c1ccccc1", "Test System": "HOP-92 NSCLC", "TGI": "> 100 µM"}
{"Structure Notation": "Cc1ccc2nc(-c3ccc(N(C)C)c(Br)c3)cn2c1", "Test System": "HOP-92 NSCLC", "TGI": "> 100 µM"}
{"Structure Notation": "Cc1[nH]c(=O)nc(NCCNCCO)c1C(=O)Nc1cccc2cc3ccccc3cc12", "Test System": "HOP-92 NSCLC", "TGI": "> 100 µM"}

Looking for the measured TGI of `COc1cc(C(=O)Nc2cc3c(cc2Oc2cc(C)cc(C)c2)C(=O)N(C)[C@@H](CC(=O)N(C)O)C(=O)N3)c(Br)c(OC)c1OC` , can you help?
< 0.00333 µM

Also check `N#C/C(C(=O)Nc1ccc(Cl)cc1)=C(/N)N1CCCC1`
> 100 µM

Also check `Cc1cc(C)c(C(=O)c2no[n+]([O-])c2C(=O)c2c(C)cc(C)c(Br)c2C)c(C)c1Br`
20.3 µM

---

TGI values for the molecules below.
# Test system: OVCAR-5 ovarian
# Assay: NCI tumour cell line growth inhibition, 48 h

{"Molecule": "CCOc1ccc(Nc2nc(N)nc(N)c2N)cc1", "Reported Metric": "TGI", "Result": "> 100 µM"}
{"Molecule": "CN(C)c1ccc(/C=C(\\NC(=O)c2ccccc2)c2nn(C)c(=O)o2)cc1", "Reported Metric": "TGI", "Result": "> 100 µM"}
{"Molecule": "CCCCOc1ccc(OCCCCCCCCCC[N+](C)(C)C)cc1", "Reported Metric": "TGI", "Result": "17.2 µM"}
{"Molecule": "Cc1sc2nc3c4ccccc4c(NCCCN(C)C)nn3c(=O)c2c1C", "Reported Metric": "TGI", "Result": "28.5 µM"}
{"Molecule": "Cc1cc(S(=O)(=O)/N=C(/C(=C=[N-])C#N)[n+]2ccc(N(C)C)cc2)c(SCC(=O)O)cc1Cl", "Reported Metric": "TGI", "Result": "> 100 µM"}
{"Molecule": "Cc1cccc(C)c1NC(=O)C1C(=O)N(c2c(C)cccc2C)C(=O)/C1=N\\NC(N)=S (configuration not stated)", "Reported Metric": "TGI", "Result": "> 100 µM"}

--- query ---
Looking for the measured TGI of `CC(C)C(=O)C(C)(C)CCc1ccccn1` , can you help?
> 100 µM
